From: ChEMBL document CHEMBL5247641

- Tested target: Dual specificity tyrosine-phosphorylation-regulated kinase 2 (Homo sapiens, UniProt Q92630)
- Sequence (Q92630 whole entry, the tested form may be a part): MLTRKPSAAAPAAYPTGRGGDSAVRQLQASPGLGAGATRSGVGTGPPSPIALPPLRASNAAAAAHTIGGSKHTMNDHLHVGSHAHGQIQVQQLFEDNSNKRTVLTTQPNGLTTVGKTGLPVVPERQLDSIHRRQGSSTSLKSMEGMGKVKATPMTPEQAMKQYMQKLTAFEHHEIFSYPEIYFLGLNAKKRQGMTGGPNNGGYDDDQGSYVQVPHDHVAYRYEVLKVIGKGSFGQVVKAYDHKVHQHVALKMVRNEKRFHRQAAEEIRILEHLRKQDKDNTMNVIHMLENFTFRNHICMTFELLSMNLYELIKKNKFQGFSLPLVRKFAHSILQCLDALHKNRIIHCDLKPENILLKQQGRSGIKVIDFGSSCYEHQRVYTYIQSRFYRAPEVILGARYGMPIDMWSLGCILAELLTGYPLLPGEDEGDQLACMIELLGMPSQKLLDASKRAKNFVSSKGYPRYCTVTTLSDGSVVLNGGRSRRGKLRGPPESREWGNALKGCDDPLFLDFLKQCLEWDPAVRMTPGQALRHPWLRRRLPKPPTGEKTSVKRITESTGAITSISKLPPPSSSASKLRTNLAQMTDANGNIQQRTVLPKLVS
- Assay remarks: Inhibition of hexa His-tagged DYRK2 (72 to 479 residues) (unknown origin) expressed in Escherichia coli BL21 (DE3) assessed as substrate phosphorylation using 4E-BP1 as substrate in presence of [gamma33-P]ATP incubated for 2 hrs by scintillation counter analysis
Reported property: IC50

// worked examples, IC50 included
IC50 recorded for this molecule, CC(C)(C)OC(=O)N1CCN(C(=O)c2ccc(Nc3ncc(F)c(-c4ccc5scnc5c4)n3)cn2)CC1 , is 0.016 µM

For reference, reported IC50 for CC(C)(C)OC(=O)N1CCN(Cc2ccc(Nc3nccc(-c4ccc5scnc5c4)n3)nc2)CC1 stands at > 10 µM

Others:
Per the record, COc1cnc(Nc2ccc(CN3CCN(C(=O)OC(C)(C)C)CC3)cn2)nc1-c1ccc2scnc2c1 has IC50 of > 10 µM

Lookup result for O=C(c1ccc(Nc2ncc(F)c(-c3ccc4scnc4c3)n2)nc1)N1CCN(C(=O)C2CC2)CC1 ; measured IC50: 0.033 µM

For reference, reported IC50 for Cc1cnc(Nc2ccc(CN3CCN(C(=O)OC(C)(C)C)CC3)cn2)nc1-c1ccc2scnc2c1 stands at > 10 µM

# molecule CC(C)(C)OC(=O)N1CCN(Cc2ccc(Nc3ncc(F)c(-c4ccc5scnc5c4)n3)nc2)CC1 ; its IC50 = > 10 µM
